# testedOn: UniProt:P10275
# Sequence (P10275 with tags, fused parts or gaps DUP590-628/H875Y, form open): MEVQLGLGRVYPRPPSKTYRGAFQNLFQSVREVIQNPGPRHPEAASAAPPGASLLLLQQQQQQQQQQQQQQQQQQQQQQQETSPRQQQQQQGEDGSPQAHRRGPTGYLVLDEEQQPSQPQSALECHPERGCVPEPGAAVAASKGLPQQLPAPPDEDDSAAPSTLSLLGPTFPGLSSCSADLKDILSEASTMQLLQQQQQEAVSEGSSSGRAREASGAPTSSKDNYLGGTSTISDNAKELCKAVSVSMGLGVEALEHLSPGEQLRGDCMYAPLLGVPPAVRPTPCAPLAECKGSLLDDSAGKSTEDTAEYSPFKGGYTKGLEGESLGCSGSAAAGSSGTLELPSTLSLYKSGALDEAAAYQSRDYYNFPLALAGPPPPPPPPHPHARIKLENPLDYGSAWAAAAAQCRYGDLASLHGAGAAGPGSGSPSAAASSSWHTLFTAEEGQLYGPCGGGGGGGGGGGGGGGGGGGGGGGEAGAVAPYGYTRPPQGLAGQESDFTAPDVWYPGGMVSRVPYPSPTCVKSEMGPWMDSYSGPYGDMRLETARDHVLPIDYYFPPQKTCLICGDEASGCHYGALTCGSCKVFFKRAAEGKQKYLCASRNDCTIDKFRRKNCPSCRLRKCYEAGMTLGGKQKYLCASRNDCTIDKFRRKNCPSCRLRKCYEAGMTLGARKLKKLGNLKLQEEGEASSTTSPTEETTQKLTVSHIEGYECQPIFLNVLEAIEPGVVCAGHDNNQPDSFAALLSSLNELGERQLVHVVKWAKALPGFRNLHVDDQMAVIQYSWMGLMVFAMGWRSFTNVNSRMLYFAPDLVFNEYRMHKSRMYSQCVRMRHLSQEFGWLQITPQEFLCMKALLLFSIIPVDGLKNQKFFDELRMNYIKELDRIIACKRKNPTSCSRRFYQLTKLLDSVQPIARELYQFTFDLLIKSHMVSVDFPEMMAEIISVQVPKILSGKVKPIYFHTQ
# test: PSA promoter luciferase reporter assay in 103E cells (AR transcriptional activity)
# assayConditions: read-out: IC50 of AR activity, 20 h, luciferase
Listing of entries alongside the reported IC50.
Answer with a number only, understood to be in µM.

Worked examples, 5 compounds total:
cpdSmiles	unitsText	IC50
CC(C)c1cc2c(cc1O)[C@@]1(C)CCCC(C)(C)[C@@H]1CC2=O	µM	2.64
CC(C)c1cc2c(cc1O)[C@@]1(C)CCCC(C)(C)[C@@H]1CC2	µM	12
COc1c(C(C)C)cc2c(c1O)[C@@]1(C)CCCC(C)(C)[C@@H]1CC2=O	µM	8.62
CC(C)C1=C[C@]2(O)CC[C@H]3C(C)(C)CCC[C@]3(C)C2=CC1=O	µM	17.6
CC(C)c1cc2c(cc1O)[C@@]1(C)CCCC(C)(C)[C@@H]1C(=O)C2=O	µM	12.9

Lab note: next compound to report on.
Read off the recorded IC50 for "C=C1CC[C@@H]2[C@](C)(CCC[C@]2(C)C(=O)O)[C@H]1CC/C(C)=C/CO"
22.7
